target: Serine/threonine-protein kinase Chk1 (Homo sapiens); test: Inhibition of human CHK1 in presence of 20 uM ATP; settings: read-out: IC50
Sequence (O14757 whole entry): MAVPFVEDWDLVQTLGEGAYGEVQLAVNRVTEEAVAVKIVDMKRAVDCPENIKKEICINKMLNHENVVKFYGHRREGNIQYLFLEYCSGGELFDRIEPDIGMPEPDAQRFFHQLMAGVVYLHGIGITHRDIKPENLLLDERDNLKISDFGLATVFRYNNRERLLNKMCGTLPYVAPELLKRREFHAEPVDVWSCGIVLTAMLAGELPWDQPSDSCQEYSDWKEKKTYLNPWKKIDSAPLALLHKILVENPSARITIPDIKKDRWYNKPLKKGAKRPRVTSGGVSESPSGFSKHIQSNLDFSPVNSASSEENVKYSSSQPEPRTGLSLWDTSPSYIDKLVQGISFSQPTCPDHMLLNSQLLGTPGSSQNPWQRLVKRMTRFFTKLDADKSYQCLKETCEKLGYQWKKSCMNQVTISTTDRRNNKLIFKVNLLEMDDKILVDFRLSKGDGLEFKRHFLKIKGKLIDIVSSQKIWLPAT
pIC50: −log10 of the molar value.
readout-kind: pIC50

molecule=CC(=O)Nc1cccc(-c2cnc3[nH]nc(C)c3c2)c1 target_system="Serine/threonine-protein kinase Chk1 (Homo sapiens)" readout_kind=pIC50 experimental_result=6.63

* * *

target: Mitogen-activated protein kinase 15 (Homo sapiens, UniProt Q8TD08); assay: Inhibition of human ERK8 in presence of 5 uM ATP
Sequence (Q8TD08 whole entry): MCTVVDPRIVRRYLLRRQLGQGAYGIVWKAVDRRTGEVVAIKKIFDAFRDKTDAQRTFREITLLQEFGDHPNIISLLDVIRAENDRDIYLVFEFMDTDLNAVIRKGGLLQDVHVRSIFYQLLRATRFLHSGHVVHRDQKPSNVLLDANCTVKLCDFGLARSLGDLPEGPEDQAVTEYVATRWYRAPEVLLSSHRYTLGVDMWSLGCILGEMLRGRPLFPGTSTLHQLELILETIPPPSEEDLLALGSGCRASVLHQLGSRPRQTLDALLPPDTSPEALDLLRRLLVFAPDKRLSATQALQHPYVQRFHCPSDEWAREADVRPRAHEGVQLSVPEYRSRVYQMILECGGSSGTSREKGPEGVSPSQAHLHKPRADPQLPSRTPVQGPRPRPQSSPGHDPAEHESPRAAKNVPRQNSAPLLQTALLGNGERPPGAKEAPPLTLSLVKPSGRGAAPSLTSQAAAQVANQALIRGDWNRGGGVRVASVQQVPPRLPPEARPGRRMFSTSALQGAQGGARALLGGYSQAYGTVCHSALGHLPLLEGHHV
pIC50: −log10 of the molar value.
readout-kind: pIC50

molecule=CC(=O)Nc1cccc(-c2cnc3[nH]nc(C)c3c2)c1 target_system="Mitogen-activated protein kinase 15 (Homo sapiens, UniProt Q8TD08)" readout_kind=pIC50 experimental_result=6.40

* * *

species: Rattus norvegicus; experiment: Inhibition of rat AMPK assessed as residual activity at 10 uM relative to control
readout-kind: Activity (%)

molecule=CC(=O)Nc1cccc(-c2cnc3[nH]nc(C)c3c2)c1 unit=% experimental_result=69.9
molecule=NC(=O)c1ccc(-c2nc(-c3ccc4c(c3)OCCO4)c(-c3ccccn3)[nH]2)cc1 unit=% experimental_result=98
molecule=CC(=O)Nc1nccc(-c2c(-c3ccccc3)noc2C)n1 unit=% experimental_result=101
molecule=CCCC(=O)Nc1n[nH]c2ncc(-c3cccnc3)cc12 unit=% experimental_result=105

* * *

Listed here are compounds together with their documented Activity.
organism: Oryctolagus cuniculus; assay: Inhibition of rabbit MKK1 assessed as residual activity at 10 uM relative to control
readout-kind: Activity (%)

molecule=NC(=O)c1ccc(-c2nc(-c3ccc4c(c3)OCCO4)c(-c3ccccn3)[nH]2)cc1 experimental_result=93
molecule=CC(=O)Nc1cccc(-c2cnc3[nH]nc(C)c3c2)c1 experimental_result=45.9
molecule=CC(=O)Nc1nccc(-c2c(-c3ccccc3)noc2C)n1 experimental_result=66.8
molecule=CCCC(=O)Nc1n[nH]c2ncc(-c3cccnc3)cc12 experimental_result=103

* * *

target: Proto-oncogene tyrosine-protein kinase Src (Homo sapiens) (UniProt P12931); assay: Inhibition of human SRC assessed as residual activity at 10 uM relative to control
Sequence (P12931 2-536 limits assumed): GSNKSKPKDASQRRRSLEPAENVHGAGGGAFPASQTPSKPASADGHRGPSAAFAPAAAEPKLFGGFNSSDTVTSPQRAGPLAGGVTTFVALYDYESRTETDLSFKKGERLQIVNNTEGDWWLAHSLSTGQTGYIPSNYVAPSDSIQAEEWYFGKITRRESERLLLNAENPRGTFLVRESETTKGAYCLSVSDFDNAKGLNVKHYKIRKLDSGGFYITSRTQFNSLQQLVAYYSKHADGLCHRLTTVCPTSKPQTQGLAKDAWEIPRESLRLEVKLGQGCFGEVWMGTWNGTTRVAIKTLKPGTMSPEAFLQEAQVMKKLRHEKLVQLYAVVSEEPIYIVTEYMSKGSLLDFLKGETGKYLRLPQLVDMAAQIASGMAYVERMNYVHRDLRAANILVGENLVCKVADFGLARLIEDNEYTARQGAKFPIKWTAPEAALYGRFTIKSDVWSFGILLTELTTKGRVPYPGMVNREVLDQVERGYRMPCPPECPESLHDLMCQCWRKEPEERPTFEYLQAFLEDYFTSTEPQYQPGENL
Activity reference
readout-kind: Activity (%)

molecule=CCCC(=O)Nc1n[nH]c2ncc(-c3cccnc3)cc12 readout_kind=Activity experimental_result=72
molecule=CC(=O)Nc1nccc(-c2c(-c3ccccc3)noc2C)n1 readout_kind=Activity experimental_result=91.9
molecule=NC(=O)c1ccc(-c2nc(-c3ccc4c(c3)OCCO4)c(-c3ccccn3)[nH]2)cc1 readout_kind=Activity experimental_result=82
molecule=CC(=O)Nc1cccc(-c2cnc3[nH]nc(C)c3c2)c1 readout_kind=Activity experimental_result=23.8

* * *

molecular target: Cyclin-dependent kinase 2 (Homo sapiens) (UniProt P24941); assay: Inhibition of human CDK2 assessed as residual activity at 10 uM relative to control
readout-kind: Activity (%)

molecule=CCCC(=O)Nc1n[nH]c2ncc(-c3cccnc3)cc12 experimental_result=5
molecule=NC(=O)c1ccc(-c2nc(-c3ccc4c(c3)OCCO4)c(-c3ccccn3)[nH]2)cc1 experimental_result=113
molecule=CC(=O)Nc1cccc(-c2cnc3[nH]nc(C)c3c2)c1 experimental_result=40.3
molecule=CC(=O)Nc1nccc(-c2c(-c3ccccc3)noc2C)n1 experimental_result=104

* * *

molecular target: UniProt Q62868; assay: Inhibition of rat ROCK2 assessed as residual activity at 10 uM relative to control
Sequence (Q62868 whole entry, looked up): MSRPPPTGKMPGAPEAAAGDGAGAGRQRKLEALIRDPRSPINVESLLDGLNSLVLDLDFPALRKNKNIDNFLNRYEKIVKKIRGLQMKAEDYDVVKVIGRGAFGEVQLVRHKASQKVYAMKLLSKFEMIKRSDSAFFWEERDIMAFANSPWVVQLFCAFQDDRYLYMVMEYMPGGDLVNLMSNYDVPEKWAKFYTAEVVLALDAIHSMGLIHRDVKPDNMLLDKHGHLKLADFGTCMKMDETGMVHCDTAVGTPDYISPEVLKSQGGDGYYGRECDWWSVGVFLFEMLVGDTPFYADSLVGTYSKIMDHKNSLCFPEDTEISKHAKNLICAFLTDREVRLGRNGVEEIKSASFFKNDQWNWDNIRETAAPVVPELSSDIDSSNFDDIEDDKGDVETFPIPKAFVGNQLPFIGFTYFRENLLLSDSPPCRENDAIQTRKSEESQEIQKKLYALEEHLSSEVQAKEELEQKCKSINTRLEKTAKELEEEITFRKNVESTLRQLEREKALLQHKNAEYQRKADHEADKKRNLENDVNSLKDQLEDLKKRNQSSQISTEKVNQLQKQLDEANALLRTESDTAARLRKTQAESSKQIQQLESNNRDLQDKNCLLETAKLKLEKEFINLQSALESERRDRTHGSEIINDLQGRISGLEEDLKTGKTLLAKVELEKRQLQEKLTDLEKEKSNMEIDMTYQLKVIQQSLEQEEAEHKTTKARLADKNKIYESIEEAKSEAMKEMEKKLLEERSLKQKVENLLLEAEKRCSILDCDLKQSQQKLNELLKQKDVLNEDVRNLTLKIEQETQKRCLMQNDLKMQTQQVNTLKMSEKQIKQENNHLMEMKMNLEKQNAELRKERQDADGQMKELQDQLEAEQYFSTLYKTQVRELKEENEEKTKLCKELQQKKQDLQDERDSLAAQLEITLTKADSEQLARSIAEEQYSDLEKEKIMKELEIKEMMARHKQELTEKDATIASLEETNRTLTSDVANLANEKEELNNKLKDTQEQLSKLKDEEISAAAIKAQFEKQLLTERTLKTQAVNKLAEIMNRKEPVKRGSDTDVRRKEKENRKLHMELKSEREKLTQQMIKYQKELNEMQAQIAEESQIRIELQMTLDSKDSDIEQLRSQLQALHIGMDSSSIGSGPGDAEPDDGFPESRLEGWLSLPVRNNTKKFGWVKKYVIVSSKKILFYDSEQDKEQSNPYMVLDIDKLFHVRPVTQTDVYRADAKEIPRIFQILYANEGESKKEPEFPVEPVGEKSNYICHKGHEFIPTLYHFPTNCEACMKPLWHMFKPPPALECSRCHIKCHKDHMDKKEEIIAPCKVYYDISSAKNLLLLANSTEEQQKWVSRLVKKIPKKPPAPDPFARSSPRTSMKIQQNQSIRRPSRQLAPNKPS
# Lookup of reported Activity keyed by entry
readout-kind: Activity

molecule=CC(=O)Nc1cccc(-c2cnc3[nH]nc(C)c3c2)c1 target_system="UniProt Q62868" readout_kind=Activity experimental_result=58.7%
molecule=CC(=O)Nc1nccc(-c2c(-c3ccccc3)noc2C)n1 target_system="UniProt Q62868" readout_kind=Activity experimental_result=92.3%
molecule=NC(=O)c1ccc(-c2nc(-c3ccc4c(c3)OCCO4)c(-c3ccccn3)[nH]2)cc1 target_system="UniProt Q62868" readout_kind=Activity experimental_result=105%
molecule=CCCC(=O)Nc1n[nH]c2ncc(-c3cccnc3)cc12 target_system="UniProt Q62868" readout_kind=Activity experimental_result=111%
